- ASSAY COMMENT: Approximate acute toxicity (LD50) in the mouse, per os
- COND: in vivo, po, single administration of increasing doses, measured on seventh day after the day of treatment

CHEMICAL STRING	LD50 at 168 h
O=C(Nc1ccccn1)c1nnc2ccccc2c1O	> 800 mg/kg

Numbers sourced from patent US4826837A.
